- assayed.target: Progesterone receptor (Homo sapiens, UniProt P06401); note: assay procedure not described here
- Sequence (P06401 whole entry): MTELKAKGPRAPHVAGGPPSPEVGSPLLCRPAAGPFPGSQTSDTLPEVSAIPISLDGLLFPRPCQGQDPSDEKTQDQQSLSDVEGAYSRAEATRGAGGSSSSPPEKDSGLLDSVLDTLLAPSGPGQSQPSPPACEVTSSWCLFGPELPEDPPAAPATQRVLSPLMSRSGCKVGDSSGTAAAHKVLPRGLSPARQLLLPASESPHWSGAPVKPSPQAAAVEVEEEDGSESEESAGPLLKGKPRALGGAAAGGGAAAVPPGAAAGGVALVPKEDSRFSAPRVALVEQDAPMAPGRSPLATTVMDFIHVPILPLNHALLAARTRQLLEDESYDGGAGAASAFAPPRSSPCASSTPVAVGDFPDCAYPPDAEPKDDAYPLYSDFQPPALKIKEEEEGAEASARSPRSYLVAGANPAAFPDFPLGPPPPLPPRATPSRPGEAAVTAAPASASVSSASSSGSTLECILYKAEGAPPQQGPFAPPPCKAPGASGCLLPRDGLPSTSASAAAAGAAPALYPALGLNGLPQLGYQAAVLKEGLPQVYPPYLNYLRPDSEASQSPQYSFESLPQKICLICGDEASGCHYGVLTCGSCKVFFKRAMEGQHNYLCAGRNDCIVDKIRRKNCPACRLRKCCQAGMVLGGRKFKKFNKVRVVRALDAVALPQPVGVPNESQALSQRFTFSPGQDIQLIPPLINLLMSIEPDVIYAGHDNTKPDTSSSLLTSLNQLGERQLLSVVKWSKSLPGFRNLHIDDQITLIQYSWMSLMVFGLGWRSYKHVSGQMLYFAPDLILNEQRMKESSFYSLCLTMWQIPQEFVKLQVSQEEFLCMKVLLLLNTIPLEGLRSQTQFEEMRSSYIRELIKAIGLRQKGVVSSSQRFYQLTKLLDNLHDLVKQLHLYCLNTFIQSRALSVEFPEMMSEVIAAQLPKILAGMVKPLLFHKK
- Assay type: functional
quantity.measured: AC50

1) COC(=O)C1=C(C)NC(C)=C(C(=O)OCC(C)C)C1c1ccccc1[N+](=O)[O-] (stereo not drawn) = > 30 µM
2) N[C@@H](CSCC(=O)O)C(=O)O = > 30 µM
3) CC(C)[N+](C)(CCC(C(N)=O)(c1ccccc1)c1ccccc1)C(C)C [ISOPROPAMIDE] = > 10 µM
4) C[C@H]1O[C@H](O[C@H]2[C@H](O)[C@@H](O)[C@@H](O[C@H]3[C@H](O)[C@@H](O)C(O)O[C@@H]3CO)O[C@@H]2CO)[C@H](O)[C@@H](O)[C@@H]1N[C@H]1C=C(CO)[C@@H](O)[C@H](O)[C@H]1O (stereo partly drawn) = > 30 µM
5) COc1ccc2c(c1)c(CC(=O)OCC(=O)O)c(C)n2C(=O)c1ccc(Cl)cc1 = > 30 µM
6) CS(=O)(=O)Nc1cc2occ(NC=O)c(=O)c2cc1Oc1ccccc1 = > 30 µM
7) CN1CCCC(n2nc(Cc3ccc(Cl)cc3)c3ccccc3c2=O)CC1 (stereo not drawn) = > 30 µM
8) CC(C(=O)O)c1ccc(C(=O)c2cccs2)cc1 (stereo not drawn) = > 10 µM

---

Documented AC50 across a set of compounds
- assayed.target: Melanocortin receptor 3 (Homo sapiens, UniProt P41968); note: assay procedure not described here
- Sequence (P41968 whole entry): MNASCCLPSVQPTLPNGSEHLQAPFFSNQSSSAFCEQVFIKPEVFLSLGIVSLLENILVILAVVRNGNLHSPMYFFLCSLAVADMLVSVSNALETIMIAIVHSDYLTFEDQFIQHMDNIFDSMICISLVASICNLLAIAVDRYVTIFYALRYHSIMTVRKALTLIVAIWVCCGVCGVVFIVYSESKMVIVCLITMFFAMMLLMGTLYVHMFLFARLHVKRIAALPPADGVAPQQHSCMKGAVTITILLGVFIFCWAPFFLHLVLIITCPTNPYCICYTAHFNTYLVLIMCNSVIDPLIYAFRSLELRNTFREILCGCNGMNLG
quantity.measured: AC50

1. CC1=CC(=O)c2ccccc2C1=O = > 10 µM
2. C[C@H]1O[C@H](O[C@H]2[C@H](O)[C@@H](O)[C@@H](O[C@H]3[C@H](O)[C@@H](O)C(O)O[C@@H]3CO)O[C@@H]2CO)[C@H](O)[C@@H](O)[C@@H]1N[C@H]1C=C(CO)[C@@H](O)[C@H](O)[C@H]1O (stereo not given in full) = > 30 µM
3. CC(=O)c1ccc2c(c1)N(CCCN1CCN(CCO)CC1)c1ccccc1S2 = > 30 µM
4. CN(CCCN1c2ccccc2CCc2ccccc21)CC(=O)c1ccc(Cl)cc1 = > 30 µM
5. C1COC(NC(C2CC2)C2CC2)=N1 = > 30 µM

---

- assayed.target: Sodium channel protein type 5 subunit alpha (Homo sapiens, UniProt Q14524); note: assay procedure not described here
- Sequence (Q14524 whole entry): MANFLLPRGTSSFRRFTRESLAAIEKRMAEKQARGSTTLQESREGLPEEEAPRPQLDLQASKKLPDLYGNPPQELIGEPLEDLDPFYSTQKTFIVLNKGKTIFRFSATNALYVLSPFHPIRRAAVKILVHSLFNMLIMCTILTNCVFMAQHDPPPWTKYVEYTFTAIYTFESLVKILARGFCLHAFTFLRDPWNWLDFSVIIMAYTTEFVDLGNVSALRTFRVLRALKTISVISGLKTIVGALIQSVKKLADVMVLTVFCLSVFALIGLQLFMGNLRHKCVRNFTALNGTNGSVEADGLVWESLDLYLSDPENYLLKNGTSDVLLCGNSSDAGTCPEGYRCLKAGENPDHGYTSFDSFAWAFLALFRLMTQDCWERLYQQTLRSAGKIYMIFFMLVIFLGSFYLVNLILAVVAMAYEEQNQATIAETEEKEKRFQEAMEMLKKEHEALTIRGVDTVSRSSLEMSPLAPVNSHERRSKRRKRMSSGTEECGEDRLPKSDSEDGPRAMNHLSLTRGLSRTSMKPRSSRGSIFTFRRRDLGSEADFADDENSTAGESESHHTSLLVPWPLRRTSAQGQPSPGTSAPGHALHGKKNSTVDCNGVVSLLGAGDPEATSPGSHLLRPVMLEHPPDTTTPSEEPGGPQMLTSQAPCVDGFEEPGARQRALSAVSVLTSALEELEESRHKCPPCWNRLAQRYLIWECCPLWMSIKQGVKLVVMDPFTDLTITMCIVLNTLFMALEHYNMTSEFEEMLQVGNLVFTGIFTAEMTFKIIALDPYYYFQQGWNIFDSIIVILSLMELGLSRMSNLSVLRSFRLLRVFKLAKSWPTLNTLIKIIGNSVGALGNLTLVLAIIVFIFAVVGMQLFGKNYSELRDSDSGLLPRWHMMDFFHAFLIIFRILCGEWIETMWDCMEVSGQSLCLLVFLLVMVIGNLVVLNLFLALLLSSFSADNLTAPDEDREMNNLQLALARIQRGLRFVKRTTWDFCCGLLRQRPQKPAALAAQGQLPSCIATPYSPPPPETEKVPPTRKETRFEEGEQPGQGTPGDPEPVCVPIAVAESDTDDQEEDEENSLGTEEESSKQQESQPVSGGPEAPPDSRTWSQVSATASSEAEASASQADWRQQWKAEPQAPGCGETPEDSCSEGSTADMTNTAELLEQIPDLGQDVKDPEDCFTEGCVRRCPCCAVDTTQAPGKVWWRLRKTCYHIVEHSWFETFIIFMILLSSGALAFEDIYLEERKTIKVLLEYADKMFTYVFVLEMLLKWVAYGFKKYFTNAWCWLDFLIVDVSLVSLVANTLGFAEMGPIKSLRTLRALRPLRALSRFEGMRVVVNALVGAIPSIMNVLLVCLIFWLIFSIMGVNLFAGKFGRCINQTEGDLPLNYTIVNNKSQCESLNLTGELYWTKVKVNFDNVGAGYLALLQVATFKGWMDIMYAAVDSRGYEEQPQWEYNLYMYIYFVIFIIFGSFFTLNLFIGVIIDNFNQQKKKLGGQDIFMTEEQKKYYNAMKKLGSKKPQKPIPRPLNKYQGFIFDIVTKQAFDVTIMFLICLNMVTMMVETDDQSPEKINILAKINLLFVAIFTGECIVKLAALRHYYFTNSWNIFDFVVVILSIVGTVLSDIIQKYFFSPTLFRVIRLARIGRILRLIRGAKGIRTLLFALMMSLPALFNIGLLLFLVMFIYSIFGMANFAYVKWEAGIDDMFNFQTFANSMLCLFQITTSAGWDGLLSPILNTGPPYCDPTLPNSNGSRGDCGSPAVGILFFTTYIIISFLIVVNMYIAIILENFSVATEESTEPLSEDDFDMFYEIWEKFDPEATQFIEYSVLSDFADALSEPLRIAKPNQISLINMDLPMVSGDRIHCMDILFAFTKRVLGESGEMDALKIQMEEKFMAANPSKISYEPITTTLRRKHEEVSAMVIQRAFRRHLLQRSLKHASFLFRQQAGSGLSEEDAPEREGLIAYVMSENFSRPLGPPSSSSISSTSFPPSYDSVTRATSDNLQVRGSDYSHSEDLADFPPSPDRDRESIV
- Assay type: functional, cell-based
quantity.measured: AC50

1) OCc1cc([C@@H](O)CNCCCCCCOCCOCc2c(Cl)cccc2Cl)ccc1O = 5 µM
2) CC(C)OC(=O)[C@H](C)N[P@](=O)(OC[C@H]1O[C@@H](n2ccc(=O)[nH]c2=O)[C@](C)(F)[C@@H]1O)Oc1ccccc1 = > 50 µM
3) CC(C)NCC(O)COc1ccc(COCCOC(C)C)cc1 (stereo not drawn) = > 30 µM
4) O=C(COc1ccc(Cl)cc1)N1CCN(Cc2ccc3c(c2)OCO3)CC1 [FIPEXIDE] = > 50 µM
5) CCCS(=O)(=O)Nc1ccc(F)c(C(=O)c2c[nH]c3ncc(-c4ccc(Cl)cc4)cc23)c1F = > 30 µM
6) CCOC(=O)[C@H](CCc1ccccc1)N[C@@H](C)C(=O)N1CCC[C@H]1C(=O)O = > 30 µM
7) N#C[C@@H]1C[C@@H]2C[C@@H]2N1C(=O)[C@@H](N)C12CC3CC(CC(O)(C3)C1)C2 [SAXAGLIPTIN ANHYDROUS] = > 15 µM
8) COC(=O)C1=C(C)NC(C)=C(C(=O)OC(C)C)C1c1cccc2nonc12 (stereo not drawn) = 2.98 µM

---

- assayed.target: Gamma-aminobutyric acid receptor subunit alpha-1 (Rattus norvegicus); note: assay procedure not described here
- Sequence (P62813 whole entry): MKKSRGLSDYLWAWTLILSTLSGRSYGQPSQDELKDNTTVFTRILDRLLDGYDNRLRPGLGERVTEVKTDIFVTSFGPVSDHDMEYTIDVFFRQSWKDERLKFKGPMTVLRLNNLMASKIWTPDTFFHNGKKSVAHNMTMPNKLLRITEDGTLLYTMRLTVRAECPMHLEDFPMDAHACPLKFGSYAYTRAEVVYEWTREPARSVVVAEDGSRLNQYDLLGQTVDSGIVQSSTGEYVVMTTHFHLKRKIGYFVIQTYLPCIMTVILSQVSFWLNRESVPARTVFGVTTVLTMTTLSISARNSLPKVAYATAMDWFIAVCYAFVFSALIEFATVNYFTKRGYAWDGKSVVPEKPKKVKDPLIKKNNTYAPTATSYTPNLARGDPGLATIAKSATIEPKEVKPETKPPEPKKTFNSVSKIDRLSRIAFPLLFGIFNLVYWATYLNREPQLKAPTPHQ
- Type: functional
Documented AC50 across a set of compounds
quantity.measured: AC50

1) CCCCC(C)(O)C/C=C/[C@H]1[C@H](O)CC(=O)[C@@H]1CCCCCCC(=O)OC (some centres not stated) = > 30 µM
2) COc1ccc(C(=O)NCc2ccc(OCCN(C)C)cc2)cc1OC [ITOPRIDE] = > 30 µM
3) CC(Cc1ccccc1)NCCC(c1ccccc1)c1ccccc1 (configuration not stated) = > 10 µM
4) C[C@H]1O[C@H](O[C@H]2[C@H](O)[C@@H](O)[C@@H](O[C@H]3[C@H](O)[C@@H](O)C(O)O[C@@H]3CO)O[C@@H]2CO)[C@H](O)[C@@H](O)[C@@H]1N[C@H]1C=C(CO)[C@@H](O)[C@H](O)[C@H]1O (some centres not stated) = > 10 µM
5) CO/N=C(\C(=O)N[C@@H]1C(=O)N2C(C(=O)[O-])=C(C[N+]3(C)CCCC3)CS[C@H]12)c1csc(N)n1 = > 300 µM
6) C[C@H]1C[C@@H]2[C@H]([C@@H](O)C[C@@]3(C)[C@H]2CC[C@]3(O)C(=O)COC(=O)CCC(=O)O)[C@@]2(C)C=CC(=O)C=C12 [METHYLPREDNISOLONE HEMISUCCINATE] = > 30 µM
7) COC(=O)C1=C(C)NC(C)=C(C(=O)OC(C)C)C1c1cccc2nonc12 (configuration not stated) = > 10 µM
8) Oc1ncnc2[nH]ncc12 = > 10 µM
9) Cc1c(C(=O)Nc2ccc(N3C[C@@H](C)O[C@@H](C)C3)nc2)cccc1-c1ccc(OC(F)(F)F)cc1 = > 10 µM
10) COc1ccc2cccc(CCNC(C)=O)c2c1 = > 10 µM
11) CCC1(C2=CCCCCC2)C(=O)NC(=O)NC1=O = > 10 µM
12) O=P(O)(O)C(O)(Cc1cccnc1)P(=O)(O)O = > 30 µM
13) CC(C)C(=O)Nc1ccc([N+](=O)[O-])c(C(F)(F)F)c1 [FLUTAMIDE] = > 10 µM
14) CCCCOc1cc(C(=O)NCCN(CC)CC)c2ccccc2n1 = > 30 µM
15) NC(CO)C(=O)NNCc1ccc(O)c(O)c1O (configuration not stated) [BENSERAZIDE] = > 10 µM
16) C1=Cc2cccc(OCC3CNCCO3)c2C1 (configuration not stated) = > 30 µM
17) CN(C/C=C/c1ccccc1)Cc1cccc2ccccc12 = > 10 µM

---

- assayed.target: Kappa-type opioid receptor (Homo sapiens); note: assay procedure not described here
- Sequence (P41145 whole entry): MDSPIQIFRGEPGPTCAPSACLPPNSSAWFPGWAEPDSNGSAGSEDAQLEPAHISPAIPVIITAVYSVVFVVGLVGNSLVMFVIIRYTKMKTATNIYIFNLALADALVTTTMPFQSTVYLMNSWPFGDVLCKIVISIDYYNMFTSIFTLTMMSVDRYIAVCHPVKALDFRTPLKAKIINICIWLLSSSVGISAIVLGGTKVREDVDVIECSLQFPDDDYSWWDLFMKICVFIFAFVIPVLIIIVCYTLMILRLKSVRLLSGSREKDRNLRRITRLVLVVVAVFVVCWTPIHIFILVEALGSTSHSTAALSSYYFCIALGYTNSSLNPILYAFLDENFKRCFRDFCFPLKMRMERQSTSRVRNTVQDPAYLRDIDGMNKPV
quantity.measured: AC50

1) CCCCCCCCOc1ccccc1C(=O)Nc1ccc(C(=O)OCC[N+](C)(CC)CC)cc1 [OTILONIUM BROMIDE] = 3.4 µM
2) NC(CO)C(=O)NNCc1ccc(O)c(O)c1O (stereo not drawn) [BENSERAZIDE] = > 10 µM
3) C[C@H]1C[C@@H]2[C@H]([C@@H](O)C[C@@]3(C)[C@H]2CC[C@]3(O)C(=O)COC(=O)CCC(=O)O)[C@@]2(C)C=CC(=O)C=C12 [METHYLPREDNISOLONE HEMISUCCINATE] = > 30 µM
4) O=C(O)CCn1c2c(c3ccccc31)C[C@H](NS(=O)(=O)c1ccc(F)cc1)CC2 = > 10 µM
5) Cc1c(O)c(=O)ccn1C = > 30 µM
6) CCCC(=O)N1CCCN(c2nc(N)c3cc(OC)c(OC)cc3n2)CC1 = > 30 µM
7) O=C(NC[C@H]1CN(c2ccc(N3CCOCC3=O)cc2)C(=O)O1)c1ccc(Cl)s1 = > 30 µM
8) CC(N)Cc1ccccc1 (stereo not drawn) = > 10 µM

---

Consider molecules characterized by their AC50 with Type-1 angiotensin II receptor (Homo sapiens, UniProt P30556).
Sequence (P30556 whole entry): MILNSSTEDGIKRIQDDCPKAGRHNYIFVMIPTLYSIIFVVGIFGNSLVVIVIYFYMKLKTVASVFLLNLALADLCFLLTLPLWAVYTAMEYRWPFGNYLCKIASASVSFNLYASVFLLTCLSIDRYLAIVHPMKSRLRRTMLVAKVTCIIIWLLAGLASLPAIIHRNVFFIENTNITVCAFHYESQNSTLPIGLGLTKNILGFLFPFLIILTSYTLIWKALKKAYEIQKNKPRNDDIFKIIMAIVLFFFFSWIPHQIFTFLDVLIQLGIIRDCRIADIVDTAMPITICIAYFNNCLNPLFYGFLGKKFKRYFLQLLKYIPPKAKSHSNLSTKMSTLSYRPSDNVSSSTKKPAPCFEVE
quantity.measured: AC50

1. Cc1cccc(C)c1NC(=O)C1CCCCN1C (stereo not drawn) [MEPIVACAINE] = > 30 µM
2. COC(=O)N[C@H](C(=O)N[C@@H](Cc1ccccc1)[C@@H](O)CN(Cc1ccc(-c2ccccn2)cc1)NC(=O)[C@@H](NC(=O)OC)C(C)(C)C)C(C)(C)C [ATAZANAVIR] = > 10 µM
3. CCC[C@@H]1C[C@@H](C(=O)N[C@@H]([C@H]2O[C@H](SC)[C@H](O)[C@@H](O)[C@H]2O)[C@H](C)Cl)N(C)C1 [CLINDAMYCIN] = > 30 µM
4. Cc1cccc(C)c1OCC(C)N (stereo not drawn) [MEXILETINE] = > 30 µM
5. CCN(CC)CCOC(=O)c1ccc(N)cc1 [PROCAINE] = > 30 µM
6. Nc1nc2ccc(OC(F)(F)F)cc2s1 [RILUZOLE] = > 30 µM
7. CC(=O)c1ccc2c(c1)N(CCCN1CCN(CCO)CC1)c1ccccc1S2 [ACETOPHENAZINE] = > 30 µM
8. CC(C)(C(=O)c1cccnc1)c1cccnc1 [METYRAPONE] = > 10 µM
9. COC(=O)[C@@H]1CC2=CC(=O)CC[C@]2(C)[C@@]23O[C@@H]2C[C@@]2(C)[C@@H](CC[C@@]24CCC(=O)O4)[C@H]13 [EPLERENONE] = > 30 µM
10. CCN1CCC[C@H]1CNC(=O)c1cc(S(N)(=O)=O)ccc1OC [LEVOSULPIRIDE] = > 30 µM
11. NC[C@H]1CC[C@H](C(=O)O)CC1 [TRANEXAMIC ACID] = > 10 µM
12. CC(C)C(=O)OCC(=O)[C@@]12O[C@H](C3CCCCC3)O[C@@H]1C[C@H]1[C@@H]3CCC4=CC(=O)C=C[C@]4(C)[C@H]3[C@@H](O)C[C@@]12C [CICLESONIDE] = > 10 µM
13. CN(C)[C@@H]1C(O)=C(C(N)=O)C(=O)[C@@]2(O)C(O)=C3C(=O)c4c(O)ccc(Cl)c4[C@@H](O)[C@H]3C[C@@H]12 [DEMECLOCYCLINE] = > 10 µM
14. CCc1nn(CCCN2CCN(c3cccc(Cl)c3)CC2)c(=O)n1CCOc1ccccc1 [NEFAZODONE] = > 30 µM
15. N[C@@H](C(=O)N[C@@H]1C(=O)N2C(C(=O)O)=C(Cl)CS[C@H]12)c1ccccc1 [CEFACLOR ANHYDROUS] = > 30 µM
16. CN(C/C=C/c1ccccc1)Cc1cccc2ccccc12 [NAFTIFINE] = > 30 µM
17. CC(C)Cc1ccc(CC(=O)O)cc1 [IBUFENAC] = > 30 µM
18. COc1c(C)c2c(c(O)c1C/C=C(\C)CCC(=O)OCCN1CCOCC1)C(=O)OC2 [MYCOPHENOLATE MOFETIL] = > 30 µM
19. O=C(Cn1ccnc1[N+](=O)[O-])NCc1ccccc1 [BENZNIDAZOLE] = > 30 µM
20. CCc1ccc(CCOc2ccc(CC3SC(=O)NC3=O)cc2)nc1 (stereo not drawn) [PIOGLITAZONE] = > 30 µM
21. C=C1CC[C@@]2(O)[C@H]3Cc4ccc(O)c5c4[C@@]2(CCN3CC2CC2)[C@H]1O5 = > 30 µM
22. CCCS(=O)(=O)Nc1ccc(F)c(C(=O)c2c[nH]c3ncc(-c4ccc(Cl)cc4)cc23)c1F [VEMURAFENIB] = > 30 µM
23. C[C@H]1C[C@@H]2[C@H]([C@@H](O)C[C@@]3(C)[C@H]2CC[C@]3(O)C(=O)COC(=O)CCC(=O)O)[C@@]2(C)C=CC(=O)C=C12 [METHYLPREDNISOLONE HEMISUCCINATE] = > 30 µM
24. CC(=O)NS(=O)(=O)c1ccc(N)cc1 [SULFACETAMIDE] = > 10 µM
25. O=C(O)Cc1cn(-c2ccccc2)nc1-c1ccc(Cl)cc1 [LONAZOLAC] = > 30 µM
26. O=C1NCCN1CCN1CCC(c2cn(-c3ccc(F)cc3)c3ccc(Cl)cc23)CC1 [SERTINDOLE] = > 30 µM
27. COc1ccc2c(c1)c(CC(=O)OCC(=O)O)c(C)n2C(=O)c1ccc(Cl)cc1 [ACEMETACIN] = > 30 µM
28. Cc1nc2ccc(CN(C)c3ccc(C(=O)N[C@@H](CCC(=O)O)C(=O)O)s3)cc2c(=O)[nH]1 [RALTITREXED] = > 30 µM
29. C#C[C@]1(O)CC[C@H]2[C@@H]3CCc4cc(O)ccc4[C@H]3CC[C@@]21C [ETHINYL ESTRADIOL] = > 30 µM
30. CCN(CC)CCNC(=O)c1cc(Cl)c(N)cc1OC [METOCLOPRAMIDE] = > 30 µM
31. Nc1nc(N)c2nc(-c3ccccc3)c(N)nc2n1 = > 30 µM
32. C#C[C@]1(O)CC[C@H]2[C@@H]3CCC4=CCCC[C@@H]4[C@H]3CC[C@@]21C [LYNESTRENOL] = > 30 µM
33. CN(CCOc1ccc(NS(C)(=O)=O)cc1)CCc1ccc(NS(C)(=O)=O)cc1 [DOFETILIDE] = 9.5 µM
